# tested target: human CTLA-4 (human) (UniProt P16410)
# Sequence (P16410 36-223): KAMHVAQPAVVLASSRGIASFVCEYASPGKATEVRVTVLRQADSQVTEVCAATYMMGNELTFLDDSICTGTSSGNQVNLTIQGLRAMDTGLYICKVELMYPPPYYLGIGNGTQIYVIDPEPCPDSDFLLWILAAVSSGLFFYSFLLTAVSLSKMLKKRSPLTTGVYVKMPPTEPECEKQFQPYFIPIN
# measurement protocol: flow cytometry, CHO/huCTLA-4 cells; vs WT CD80 ECD-Fc (Abcam)
measured parameter: Fold change to WT CD80 (fold)

Consider the reported Fold change to WT CD80 for these binders:
binder="variant CD80 IgV-Fc E35D/V68M/L85Q (Fc fusion) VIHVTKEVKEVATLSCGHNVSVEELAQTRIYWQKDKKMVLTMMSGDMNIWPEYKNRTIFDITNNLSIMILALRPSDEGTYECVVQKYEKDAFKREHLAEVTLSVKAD" measured_parameter="Fold change to WT CD80" quantity_unit=fold assay_value=1.1
binder="variant CD80 IgV-Fc M47V/N48K/K89N (Fc fusion) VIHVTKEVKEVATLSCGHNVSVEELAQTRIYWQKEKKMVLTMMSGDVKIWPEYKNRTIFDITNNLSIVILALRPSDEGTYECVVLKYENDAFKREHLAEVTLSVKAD" measured_parameter="Fold change to WT CD80" quantity_unit=fold assay_value=1
binder="variant CD80 IgV-Fc E35D/M47V/K89N (Fc fusion) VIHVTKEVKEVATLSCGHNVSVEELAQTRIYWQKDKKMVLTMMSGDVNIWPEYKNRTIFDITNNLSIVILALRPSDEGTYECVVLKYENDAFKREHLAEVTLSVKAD" measured_parameter="Fold change to WT CD80" quantity_unit=fold assay_value=1

a = variant CD80 IgV-Fc E35D/N48K/K89N (Fc fusion) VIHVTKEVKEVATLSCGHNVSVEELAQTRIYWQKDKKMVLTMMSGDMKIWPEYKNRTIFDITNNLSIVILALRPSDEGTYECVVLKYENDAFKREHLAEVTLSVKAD
b = variant CD80 IgV-Fc E35D/K89N (Fc fusion) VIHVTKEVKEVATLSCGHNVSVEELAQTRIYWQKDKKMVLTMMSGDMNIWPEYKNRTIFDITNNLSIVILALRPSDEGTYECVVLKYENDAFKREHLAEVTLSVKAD
c = variant CD80 IgV-Fc M47V/V68M (Fc fusion) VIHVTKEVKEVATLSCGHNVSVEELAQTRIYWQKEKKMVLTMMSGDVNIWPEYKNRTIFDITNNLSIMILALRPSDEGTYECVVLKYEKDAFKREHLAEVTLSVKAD
Exercise: Give the ascending ranking of the items by reported Fold change to WT CD80. API: response body holds the labels in the requested order.
Solution: c, b, a

# credit: patent US20220177587A1
